# Test system: CHO cells
# Protocol: MTT cell viability/proliferation assay, CHO (immortalized)
# Assay type: cell-based
# Assay Conditions: Cricetulus griseus, MTT assay, 48 h, immortalized cells, read-out: IC50 on CHO proliferation (mean ± SD)
pIC50: −log10 of the molar value.
Assay Endpoint: pIC50

{"Compound": "CNc1cc(NCCc2ccc(C)cc2)nc(N)n1 [MA−24]", "Assay Value": "≤ 4.12"}

###

# System: HUVEC cells
# Protocol: MTT cell viability/proliferation assay, HUVEC (immortalized)
# Assay type: cell-based
# Assay Conditions: Homo sapiens, MTT assay, 48 h, immortalized cells, read-out: IC50 on HUVEC proliferation (mean ± SD)
pIC50: −log10 of the molar value.

{"Molecule": "CNc1cc(NCCc2ccc(C)cc2)nc(N)n1 [MA−24]", "pIC50": "≤ 4.12"}

###

# Assay System: MTH1 (Homo sapiens)
# Protocol: MTH1 enzymatic inhibition, malachite green colorimetric assay
# Type: biochemical

{"Compound": "CNc1cc(-c2cccc(Cl)c2Cl)nc(N)n1 [TH287, reference compound]", "IC50, nM": 3.16}
